System: MS2 coat protein
Experiment: apparent Kd, MS2 coat protein; higher = weaker binding; RNA-MaP array; theophylline 2 mM where present
Settings: designed as: OFF switch for theophylline; no ligand
observable: apparent Kd

1. GUUAUGGACCUGGAUACCAGCUGGUACAAGGGCGGUCUACAUGAGGAUCACCCAUGUGUCAGCCCUUGGCAGCCAGCAACCCACU = 9.88 nM
2. AGCGACAUGCAUGAUACCAGCUACAUGAGGAUCACCCAUGUACGUCAGUAAUGACUGUGUAGCCCUUGGCAGCAUAGAGCAUGUC = 18.3 nM
3. ACGUCUCGAAAACUCGUAGUAACAAUAGAUACCAGUAGCGAGAGUUACCCUUGGCAGCUACAUGAGGAUCACCCAUGUACGAGGA = 17.4 nM
4. ACGAACGAUAGUGAUACCAGACGUACAUGAGGAUCACCCAUGUUAUACACAUGGUUUAUUGUCCCUUGGCAGCACGAUAAGUUCG = 225 nM
5. UGCUGACAAGGACAUGGAUGAUCAGCUGAUACCAGCCUGGAAACAGGCCCUUGGCAGCAGCACAUGAGGAUCACCCAUGUAAUAA = 33.7 nM
6. AGUAUACAUUCUGAUACCAGAGACAUGAGGAUCACCCAUGUCCGAUCGUCCUGCCUCAGACUCCCUUGGCAGCAGGAUAUGUGCU = 16.2 nM
7. UCAUUUGAGUGAGAUGUAAGGUAUCAUGAUACCAGUAGAUAAUUAUACCCUUGGCAGCAUGACAUGAGGAUCACCCAUGUACAUG = 11.1 nM
8. UCGGCAGUGAACGAUACCAGCGUCACGUGGCCGGUGGUCACAUGAGGAUCACCCAUGUAACGCCCUUGGCAGCGUGCGCGUACCG = 23.9 nM

----------
System: MS2 coat protein
Experiment: apparent Kd, MS2 coat protein; higher = weaker binding; RNA-MaP array; tryptophan 2.4 mM where present
Conditions: designed as: OFF switch for tryptophan; no ligand
observable: apparent Kd

1) UACUUGCUGACGGCCGCCACUAGAACAUGAGGAUCACCCAUGUACCUGGUCCUUCAUGGGUGGACUAGGACCGGGUCAGCAAGAU = 339 nM
2) AAUAAACAUGAGGAUCACCCAUGUAGGGUGCGAGGACCGGUACGGCCGCCACUCGGGUGAAAACAUGAGGAUCACCCAUGUAAAA = 200 nM
3) AAGACAUGAGGAUCACCCAUGUCGUGUGAACGAGGACCGGUACGGCCGCCACUCGUUUGAAAAUAAACGAAUGCGGCCUGGGAAA = 11 nM
4) CGUAUUGGAAACAGUACGAGUGAUCCGGUCCGAGGACCGGUACGGCCGCCACUCGAAAUAAAUAAACAUGAGGAUCACCCAUGUA = 18.6 nM
5) AGAUUCGACACGGCCGCCACUCGUGACGGAUUUCCGAGUGUCGAACAUGAGGAUCACCCAUGUCCGAGGACCGGGUGUUGAGUCU = 34.1 nM
6) GGCCCGGACUUGGAAUGGGUGUUUCCCUCACGAGGACCGGUACGGCCGCCACUCGAAGACAUGAGGAUCACCCAUGUAGUCGACA = 44.9 nM
7) UUCACAUGGUAUGAAUAUACAUACAAGAAACGAGGACCGGUACGGCCGCCACUCGUGCCGGAAACAUGAGGAUCACCCAUGUGUU = 37 nM

----------
Test system: MS2 coat protein
Assay: apparent Kd, MS2 coat protein; higher = weaker binding; RNA-MaP array; FMN 200 µM where present
Settings: designed as: OFF switch for flavin mononucleotide; no ligand
Here the recorded apparent Kd is given for each entry.
observable: apparent Kd (nM)

1) GUAAAGUGAGGAUAUGGUGAGUAGUGCCUGAGCGCUGCUCACCAGAAGGCACAUGAGGAUCACCCAUGUAUAGC = 14.7
2) GGUCCACAUGAGGAUCACCCAUGUUAGGAUAUCUCGCCCGAGCCCAUAUGGGCCAGGCAGAGAAGGAAUGUGAA = 23.7
3) GCACGGUAUGUAGGAUAUGCAUAGCAUUGCUAUGCAGAAGGACAUGAGGAUCACCCAUGUAUGUAUUCCAUACAAUUCCCGUGC = 5.41
4) UAGAUGGGAGGAUAUGCAUAGAUACAGAUUCAUGUAGUGCUACAUGAGGAUCACCCAUGUAGAAGGCCCGUCUU = 21.2
5) UACAUGAGGAUCACCCAUGUUUUGUCGUGUAUGGUAUUUAUCUAGGAUAUCAAUGUAUUUAUGUAUGAGAAGGAGAAUAUUAAU = 45.7
6) GCGCGCUAAGGAUAUACAUGAGGAUCACCCAUGUUGCUCUGAUGAGCGGGUGUAAGCUGUAGAAGGUAGAGCAA = 61.9
7) GAGAAGUCAGGAUAUGCAUGGCGGGACUUGCGUCGUGGCGUGCAGAAGGGACAUGAGGAUCACCCAUGUAAAGG = 143

----------
Test system: MS2 coat protein
Experiment: apparent Kd, MS2 coat protein; higher = weaker binding; RNA-MaP array; theophylline 2 mM where present
Details: ligand present: theophylline; designed as: OFF switch for theophylline
Entries and their apparent Kd
observable: apparent Kd

1) UCACGACGCAUGGAUACCAGCGACAUGAGGAUCACCCAUGUAUGAGGAUCAGCCAUGUUAUGCCCUUGGCAGCCACGAAGGUCAU = 64.1 nM
2) CUGCUACAUGAGGAUCACCCAUGUGGAGAUACCAGCCUGAACGAUGGCCCUUGGCAGCUCUUAGCUGGUGAUCAUAUAUUUCAGA = 146 nM
3) ACAUGAGGAUCACCCAUGUGGCGACUUGAUACCAGACCCGCACUAGUCCCUUGGCAGCAACUACGUGUGGGACACCCAUGUUAAG = 22 nM
4) ACGUCUCGAAAACUCGUAGUAACAAUAGAUACCAGUAGCGAGAGUUACCCUUGGCAGCUACAUGAGGAUCACCCAUGUACGAGGA = 17.2 nM

----------
Quick reference: apparent Kd of the listed items.
Test system: MS2 coat protein
Experiment: apparent Kd, MS2 coat protein; higher = weaker binding; RNA-MaP array
Conditions: ligand present: flavin mononucleotide; designed as: OFF switch for flavin mononucleotide
observable: apparent Kd (nM)

1. UAUUGGAUAGGAUAUACAUGAGGAUCACCCAUGUUUUCAUUGGACGAGGACGCUCUUCGUAGAAGGAUCGGCUA = 10.2
2. AUGGAACAUGAGGAUCACCCAUGUUAGGAUAUCGGCGAAGGGAGUUUUAUACUCACUGCGAGAAGGAACGUGAC = 18.7
3. CCGCGACCUGAGAAGGGCUGCCAAGGGAGACACAUGAGGAUCACCCAUGUCGGGUGGUCCUGCUAGCAGGAUAUCAUCGCAGGA = 225
